// provenance: patent US11332499B2

measured_target: MC4R (Homo sapiens, UniProt P32245)
Sequence (P32245 whole entry): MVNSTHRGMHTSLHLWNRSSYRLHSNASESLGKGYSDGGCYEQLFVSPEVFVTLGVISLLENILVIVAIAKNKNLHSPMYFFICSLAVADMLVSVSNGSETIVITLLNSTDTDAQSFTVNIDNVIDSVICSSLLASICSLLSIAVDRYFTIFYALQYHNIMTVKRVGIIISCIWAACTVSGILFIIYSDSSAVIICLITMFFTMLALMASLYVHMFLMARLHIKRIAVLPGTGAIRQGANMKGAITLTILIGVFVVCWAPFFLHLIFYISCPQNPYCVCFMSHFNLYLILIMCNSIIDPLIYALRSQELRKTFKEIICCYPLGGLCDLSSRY
protocol: Competitive radioligand binding, displacement of 125I-AGRP, HEK293 cells expressing hMC4R
Design: expressed in transfected cells
conditions: displacement of 125I-AGRP
Catalogue of substances with associated fold decreased binding affinity compared to AGRP

Guide cases for fold decreased binding affinity compared to AGRP, answers given:
substance="c[Pro-Arg-Phe-Phe-Asp-Ala-Phe-DPro] [Peptide 7 (Example 1)]" result="100 fold"
substance="c[Pro-Arg-Phe-Phe-His-Ala-Phe-DPro] [Peptide 10 (Example 1)]" result="4 fold"
substance="c[Pro-Arg-Phe-Phe-Glu-Ala-Phe-DPro] [Peptide 8 (Example 1)]" result="110 fold"
substance="c[Pro-Arg-Phe-Phe-Val-Ala-Phe-DPro] [Peptide 13 (Example 1)]" result="200 fold"

Could you now look at the following substance, please?
-- ask Which fold decreased binding affinity compared to AGRP reading was recorded for the substance c[Pro-Arg-Phe-Phe-Abu-Ala-Phe-DPro] [Peptide 4 (Example 1)] ?
-- reply 16 fold
